tested-on: T1, monkey C5-mmh (monkey, UniProt P01031 19-1676 (human entry), limits assumed)
T1 construct: Recombinant monkey C5 with a C-terminal myc-myc-hexahistidine tag
T1 chain: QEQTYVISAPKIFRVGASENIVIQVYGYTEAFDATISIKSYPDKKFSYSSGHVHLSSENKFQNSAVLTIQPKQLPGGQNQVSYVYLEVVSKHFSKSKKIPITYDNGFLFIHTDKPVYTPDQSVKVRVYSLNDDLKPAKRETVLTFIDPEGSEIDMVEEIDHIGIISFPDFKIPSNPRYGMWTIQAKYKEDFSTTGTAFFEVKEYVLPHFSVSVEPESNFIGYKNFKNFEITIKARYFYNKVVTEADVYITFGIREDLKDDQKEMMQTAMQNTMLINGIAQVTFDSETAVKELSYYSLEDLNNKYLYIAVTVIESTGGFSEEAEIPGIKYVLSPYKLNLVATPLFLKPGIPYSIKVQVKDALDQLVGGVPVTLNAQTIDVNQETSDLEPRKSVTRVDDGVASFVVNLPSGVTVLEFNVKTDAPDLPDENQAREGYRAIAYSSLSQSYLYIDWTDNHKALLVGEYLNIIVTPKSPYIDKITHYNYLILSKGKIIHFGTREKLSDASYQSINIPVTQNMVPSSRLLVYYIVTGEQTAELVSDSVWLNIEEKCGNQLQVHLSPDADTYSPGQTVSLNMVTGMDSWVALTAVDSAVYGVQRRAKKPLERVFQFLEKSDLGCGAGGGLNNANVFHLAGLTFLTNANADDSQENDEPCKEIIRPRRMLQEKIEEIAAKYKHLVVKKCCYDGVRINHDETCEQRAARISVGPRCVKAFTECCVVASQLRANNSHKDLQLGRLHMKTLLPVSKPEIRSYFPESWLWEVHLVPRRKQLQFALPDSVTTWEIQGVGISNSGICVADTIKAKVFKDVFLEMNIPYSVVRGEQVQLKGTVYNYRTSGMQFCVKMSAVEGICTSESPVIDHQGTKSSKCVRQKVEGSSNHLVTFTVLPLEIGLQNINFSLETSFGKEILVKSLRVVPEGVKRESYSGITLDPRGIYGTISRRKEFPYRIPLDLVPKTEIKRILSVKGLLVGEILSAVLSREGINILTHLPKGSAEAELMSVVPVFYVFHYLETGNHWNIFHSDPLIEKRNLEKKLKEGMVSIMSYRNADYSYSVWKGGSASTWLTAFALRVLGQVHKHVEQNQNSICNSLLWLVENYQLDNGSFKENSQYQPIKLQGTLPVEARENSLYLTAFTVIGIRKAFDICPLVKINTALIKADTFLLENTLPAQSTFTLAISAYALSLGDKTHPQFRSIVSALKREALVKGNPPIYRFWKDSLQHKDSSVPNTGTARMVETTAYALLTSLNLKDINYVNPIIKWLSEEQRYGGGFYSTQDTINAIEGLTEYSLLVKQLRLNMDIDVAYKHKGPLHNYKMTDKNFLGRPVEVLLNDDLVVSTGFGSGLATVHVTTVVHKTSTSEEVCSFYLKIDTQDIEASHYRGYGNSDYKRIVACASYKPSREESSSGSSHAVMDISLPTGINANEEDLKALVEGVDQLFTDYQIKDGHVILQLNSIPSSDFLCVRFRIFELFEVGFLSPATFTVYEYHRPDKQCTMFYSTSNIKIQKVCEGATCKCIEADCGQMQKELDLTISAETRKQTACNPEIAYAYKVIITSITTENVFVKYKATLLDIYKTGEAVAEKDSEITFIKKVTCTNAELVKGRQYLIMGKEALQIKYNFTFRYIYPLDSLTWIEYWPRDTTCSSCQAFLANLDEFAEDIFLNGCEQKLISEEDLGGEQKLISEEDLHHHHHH
assay-name: SPR, mAb captured via anti-hFc, 37C
property-label: t1/2

binder	property-label	result
H4H12166P8 (antibody, human IgG4, V domains shown, Histidine-mutated CDR variant of H4H12166P; human IgG4 Fc with S108P) VH: QVQLQESGPGLVKPSETLSLTCTVSGDSVSSSYWTWIRQPPGKGLEWIGYIYYSGSSNYNPSLKSRATISVDTSKNQFSLKLSSVTAADTAVYYCAREGNVDHTMIFDYWGQGTLVTVSS VL: AIQMTQSPSSLSASVGDRVTITCRASQGIRNDLGWYQQKPGKAPKLLIYAASSLQSGVPSRFAGRGSGTDFTLTISSLQPEDFATYYCHQDFNYPWTFGQGTKVEIK	t1/2	4 min
H4H11683N (antibody, V domains shown, also called H2M11683N) VH: QVQLVESGGGVVQPGRSLRLSCVASGFTFSSYGIHWVRQAPGKGLEWVAVIWDDGNNINYSDSVKGRFIISRDNSRKTVYLQMNSLRGEDTAVYYCARDAPIAPVPDYWGQGTLVTVSS VL: DIQMTQSPSTLSASVGDRVTITCRASQSISSWLAWYQQKPGKAPKLLIYKASSLDTGVPSRFSGSGSGTEFTLTISSLQPDDFATYYCQQYNTYSYTFGLGTKLEIK	t1/2	10 min
H4H12166P2 (antibody, human IgG4, V domains shown, Histidine-mutated CDR variant of H4H12166P; human IgG4 Fc with S108P) VH: QVQLQESGPGLVKPSETLSLTCTVSGDSVSSSYWTWIRQPPGKGLEWIGYIYYSGSSNYNPSLKSRATISVDTSKNQFSLKLSSVTAADTAVYYCAREGNVDTTMIFDYWGQGTLVTVSS VL: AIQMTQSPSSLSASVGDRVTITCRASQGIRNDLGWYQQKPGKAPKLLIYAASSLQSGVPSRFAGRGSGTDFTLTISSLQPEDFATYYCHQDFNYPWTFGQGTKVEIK	t1/2	4 min
H4H12166P7 (antibody, human IgG4, V domains shown, Histidine-mutated CDR variant of H4H12166P; human IgG4 Fc with S108P) VH: QVQLQESGPGLVKPSETLSLTCTVSGDSVSSSYWTWIRQPPGKGLEWIGYIYYSGSSNYNPSLKSRATISVDTSKNQFSLKLSSVTAADTAVYYCAREHNVDTTMIFDYWGQGTLVTVSS VL: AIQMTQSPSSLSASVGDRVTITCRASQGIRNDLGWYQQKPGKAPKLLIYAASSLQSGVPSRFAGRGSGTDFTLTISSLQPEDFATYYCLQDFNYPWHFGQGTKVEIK	t1/2	5 min
H4H12166P5 (antibody, human IgG4, V domains shown, Histidine-mutated CDR variant of H4H12166P; human IgG4 Fc with S108P) VH: QVQLQESGPGLVKPSETLSLTCTVSGDSVSSSYWTWIRQPPGKGLEWIGYIYYSGSSNYNPSLKSRATISVDTSKNQFSLKLSSVTAADTAVYYCAREGNVDTTMIHDYWGQGTLVTVSS VL: AIQMTQSPSSLSASVGDRVTITCRASQGIRNDLGWYQQKPGKAPKLLIYAASSLQSGVPSRFAGRGSGTDFTLTISSLQPEDFATYYCLQDFNYPWTFGQGTKVEIK	t1/2	4 min
